B1: KLHL20 (parent)
chain: YQDMIYAVGGRDDTTELSSAERYN

variants of: B1; assay: protein stability index of a GFP-peptide fusion (GPS, HEK-293T) (PSI 1-6); higher = more stable; conditions: c terminus: a fixed tail appended;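 also: lentivirally expressed fusions sorted by FACS into six bins by GFP to DsRed ratio, PSI derived from sequencing read proportions per bin multiplied by bin number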
Catalogue of protein stability index values
Give the value as a plain number.

Example results:
// returns reported protein stability index for input R11D
3.01

Same question, A7D this time
3.34

Same question, D13S this time
2.18

Same question, T15S this time
2.46

***
// returns reported protein stability index for input M4Q
2.66

Same question, R22C this time
2.52

Same question, Y6R this time
3.37

Same question, D3P this time
3.4

Same question, N24P this time
2.42

Same question, A20C this time
2.15

Same question, A20F this time
2.04
